From: ChEMBL document CHEMBL4387708

Test system: CYP1A2
Assay: Selectivity index ratio of IC50 for CYP1A2 (unknown origin) to EC50 for growth inhibition of Trypanosoma brucei bloodstream forms
Assay type: toxicity
Conditions: read-out: Ratio IC50/EC50
Quantity Kind: selectivity ratio

Using the record for Nc1nc2ccc(C(=O)NCc3ccccc3)cc2s1 , report its selectivity ratio.
> 10

###

Assay: Selectivity index ratio of GI50 for human A549 cells to EC50 for growth inhibition of Trypanosoma brucei bloodstream forms
Assay type: toxicity
Conditions: read-out: Ratio GI50/EC50
Quantity Kind: selectivity ratio

Using the record for Nc1nc2ccc(C(=O)NCc3ccccc3)cc2s1 , report its selectivity ratio.
> 10

###

Listed below: IC50 values for each entry.
Test: Inhibition of N-terminal His-tagged Trypanosoma brucei pteridine reductase 1 using di-hydrobiopterine as substrate measured at 1 min interval for 50 mins in presence of NADPH
Provide only the numeric value, understood in µM.

// worked examples, IC50 included
>>> observed_measurement("Nc1nc2ccc(C(=O)NCc3ccccc3[N+](=O)[O-])cc2s1")
6.46
>>> observed_measurement("Nc1nc2ccc(C(=O)N(Cc3ccccc3)Cc3ccc(Cl)c(Cl)c3)cc2s1")
12
>>> observed_measurement("Nc1nc2c(C(=O)NCc3ccc(Cl)c(Cl)c3)cc(O)c(O)c2s1")
32.3
>>> observed_measurement("Nc1nc2ccc(C(=O)NC(c3ccccc3)c3ccccc3)cc2s1")
18.5
>>> observed_measurement("CS(=O)(=O)c1ccc2nc(N)sc2c1")
34.2

Using the record for COC(=O)c1ccc(CSc2ccc3nc(N)sc3c2)cc1 , report its IC50.
0.92

Then this molecule: Nc1nc2ccc(C(=O)N(CCO)Cc3ccccc3)cc2s1
58.1

Then this molecule: Nc1nc2ccc(SCc3ccccc3)cc2s1
1.9

Then this molecule: COC(=O)C1CCN(C(=O)c2ccc(COc3ccc4nc(N)sc4c3)cc2)CC1
3.3

Then this molecule: Nc1nc2ccc(C(=O)NCCc3cccs3)cc2s1
7.5

Then this molecule: Nc1nc2ccc(C(=O)NCCc3c[nH]c4ccccc34)cc2s1
23.3

###

Assay: Inhibition of N-terminal His-tagged Trypanosoma brucei pteridine reductase 1 using di-hydrobiopterine as substrate measured at 1 min interval for 50 mins in presence of NADPH
Quantity Kind: IC50

// worked examples, IC50 included
>>> observed_measurement("COC(=O)c1ccc(COc2ccc3nc(N)sc3c2)cc1")
"1.7 µM"
>>> observed_measurement("COC(=O)C1CCN(C(=O)c2ccc(CNC(=O)c3ccc4nc(N)sc4c3)cc2)CC1")
"21.8 µM"
>>> observed_measurement("Nc1nc2ccc(OC(F)(F)F)cc2s1 [RILUZOLE]")
"15.1 µM"
>>> observed_measurement("Nc1nc2ccc(SCc3ccc(Cl)c(Cl)c3)cc2s1")
"0.9 µM"
>>> observed_measurement("COc1ccc(CN(Cc2ccc(Cl)c(Cl)c2)C(=O)c2ccc3nc(N)sc3c2)cc1OC")
"15.9 µM"

Using the record for CCc1nc(N)nc(N)c1-c1ccc(Cl)cc1 [PYRIMETHAMINE] , report its IC50.
0.09 µM

Then this molecule: N#Cc1ccc(CS(=O)(=O)c2ccc3nc(N)sc3c2)cc1
3 µM

###

Listed below: IC50 values for each entry.
Biological target: Cytochrome P450 2C19 (Homo sapiens)
Sequence (P33261 whole entry): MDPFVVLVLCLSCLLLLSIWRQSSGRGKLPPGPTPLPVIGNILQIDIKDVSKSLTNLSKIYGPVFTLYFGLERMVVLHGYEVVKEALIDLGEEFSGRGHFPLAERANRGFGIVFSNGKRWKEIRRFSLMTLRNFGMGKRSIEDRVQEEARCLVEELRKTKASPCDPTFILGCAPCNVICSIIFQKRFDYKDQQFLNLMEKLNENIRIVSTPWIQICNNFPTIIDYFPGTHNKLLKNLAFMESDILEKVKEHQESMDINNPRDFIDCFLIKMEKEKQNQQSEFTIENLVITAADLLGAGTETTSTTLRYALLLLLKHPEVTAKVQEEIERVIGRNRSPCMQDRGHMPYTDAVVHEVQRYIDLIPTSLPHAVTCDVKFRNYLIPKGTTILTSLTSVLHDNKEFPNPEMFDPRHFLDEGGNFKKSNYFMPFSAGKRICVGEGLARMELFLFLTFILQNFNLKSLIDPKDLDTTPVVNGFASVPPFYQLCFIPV

// worked examples, IC50 included
>>> observed_measurement("COC(=O)c1ccc(CS(=O)(=O)c2ccc3nc(N)sc3c2)cc1")
"< 10 µM"
>>> observed_measurement("COC(=O)c1ccc(COc2ccc3nc(N)sc3c2)cc1")
"< 10 µM"
>>> observed_measurement("N#Cc1ccc(COc2ccc3nc(N)sc3c2)cc1")
"< 10 µM"
>>> observed_measurement("Nc1nc2ccc(SC(F)(F)F)cc2s1")
"> 25 µM"
>>> observed_measurement("Nc1nc2c(O)cc(C(=O)NCc3ccc(Cl)c(Cl)c3)cc2s1")
"> 25 µM"
>>> observed_measurement("Nc1nc2ccc(S(=O)(=O)Cc3ccc(Cl)c(Cl)c3)cc2s1")
"< 10 µM"

Using the record for COc1ccc2nc(N)sc2c1 , report its IC50.
10 to 25 µM

Then this compound: Nc1nc2ccc(C(=O)NCc3ccccc3)cc2s1
> 25 µM

Then this compound: Nc1nc2ccc(C(=O)NC(c3ccccc3)c3ccccc3)cc2s1
< 10 µM

Then this compound: COC(=O)C1CCN(C(=O)c2ccc(CNC(=O)c3ccc4nc(N)sc4c3)cc2)CC1
> 25 µM

Then this compound: Nc1nc2ccc(OCc3ccccc3)cc2s1
> 25 µM

Then this compound: Nc1nc2ccc(SCc3ccc(Cl)c(Cl)c3)cc2s1
< 10 µM
